Target: human ether-à-go-go-related gene (hERG) potassium channel (human, UniProt Q12809);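 also: peak tail current of the secondary pulse compared with the same well before compound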
Sequence (Q12809 whole entry, looked up): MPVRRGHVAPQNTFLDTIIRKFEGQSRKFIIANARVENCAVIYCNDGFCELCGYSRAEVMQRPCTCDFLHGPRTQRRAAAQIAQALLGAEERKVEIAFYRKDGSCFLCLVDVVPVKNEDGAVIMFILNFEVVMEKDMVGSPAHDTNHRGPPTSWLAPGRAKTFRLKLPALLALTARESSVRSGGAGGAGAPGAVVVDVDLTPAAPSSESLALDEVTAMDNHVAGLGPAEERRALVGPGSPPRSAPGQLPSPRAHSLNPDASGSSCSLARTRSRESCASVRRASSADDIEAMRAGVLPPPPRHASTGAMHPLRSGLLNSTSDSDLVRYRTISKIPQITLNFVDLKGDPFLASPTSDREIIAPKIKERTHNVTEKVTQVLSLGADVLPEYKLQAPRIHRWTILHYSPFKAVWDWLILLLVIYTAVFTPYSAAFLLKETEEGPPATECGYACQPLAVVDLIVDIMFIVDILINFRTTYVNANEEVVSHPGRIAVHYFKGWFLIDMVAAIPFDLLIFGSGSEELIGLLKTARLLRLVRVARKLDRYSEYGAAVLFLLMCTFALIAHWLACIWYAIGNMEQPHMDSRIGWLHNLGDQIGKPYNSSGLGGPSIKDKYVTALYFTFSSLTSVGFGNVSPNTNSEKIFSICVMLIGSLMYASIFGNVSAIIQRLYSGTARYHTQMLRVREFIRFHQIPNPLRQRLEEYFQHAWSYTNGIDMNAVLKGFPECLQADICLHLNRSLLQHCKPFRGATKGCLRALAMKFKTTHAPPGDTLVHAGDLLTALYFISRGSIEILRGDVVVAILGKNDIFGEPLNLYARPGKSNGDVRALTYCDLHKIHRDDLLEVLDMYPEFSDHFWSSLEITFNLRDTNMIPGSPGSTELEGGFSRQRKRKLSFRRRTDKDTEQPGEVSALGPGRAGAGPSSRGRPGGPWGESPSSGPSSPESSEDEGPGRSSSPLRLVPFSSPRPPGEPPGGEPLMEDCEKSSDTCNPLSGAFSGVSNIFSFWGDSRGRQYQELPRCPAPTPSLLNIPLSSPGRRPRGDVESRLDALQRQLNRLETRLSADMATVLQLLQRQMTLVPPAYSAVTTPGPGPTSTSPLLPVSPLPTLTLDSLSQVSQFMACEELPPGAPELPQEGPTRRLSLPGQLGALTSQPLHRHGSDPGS
Assay: primary screen, population patch clamp on CHO cells stably expressing hERG; higher = less effect of the substance
Protocol: Briefly, Chinese hamster ovary (CHO) cells stably expressing the hERG channel were dislodged from tissue culture flasks and dispensed into PPC plates. […] During the recording, background leak currents were estimated by a 100 ms step to -80 mV from an initial holding potential of -70 mV and subtracted from the subsequent current measurement. The campaign was conducted in two phases using slight differences in recording protocol. […]
About 14,000 (4.5%) of roughly 310,000 compounds showed an effect of 50% or more. The effect is printed as a negative number. This excerpt belongs to a sample that is enriched for strong results.
Catalogue of hERG current change (%, negative = inhibition) at 10uM values
Provide only the numeric value, understood in %.

See these solved cases before continuing.
Cc1ccc(NC(=O)CN(C)Cc2cc(=O)n3ccsc3n2)cc1    -7.66
COc1ccc(NC(=O)CN(C)C(=O)CSCC(=O)Nc2ccc(C)cc2)cc1    -0.753
COc1ccc(NC(=O)/C=C/c2ccccc2[N+](=O)[O-])c(OC)c1    4.66
COc1cccc(CNC(=O)CCC2CCCN(C(=O)c3ccoc3C)C2)c1 (centres unmarked)    5.6
COc1cccc(NC(=O)CN(C)C(=O)CCCNC(=O)c2ccc(Cl)cc2)c1    -46.5

Can you look up hERG current change (%, negative = inhibition) at 10uM on human ether-à-go-go-related gene (hERG) potassium channel (human, UniProt Q12809) for O=c1c2ccccc2nnn1Cc1ccccc1 ?
35.3

Same thing, different compound: CCN(CC)C(=O)C1CCCN(Cc2cccc(Oc3ccccc3)c2)C1 (centres unmarked)
-19.6

Same thing, different compound: COc1ccccc1CC(=O)Nc1ccc(O)cc1C(=O)O
0.828

Same thing, different compound: Clc1ccccc1Cn1nnc(-c2ccccc2)n1
4.02

Same thing, different compound: Cn1cnnc1SCC(=O)NN(c1ccccc1)c1ccccc1
28.6

====

biological target: human ether-à-go-go-related gene (hERG) potassium channel (human, UniProt Q12809); test: primary screen, population patch clamp on CHO cells stably expressing hERG; higher = less effect of the substance;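 also: peak tail current of the secondary pulse compared with the same well before compound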
Out of some 310,000 compounds screened, about 14,000 (4.5%) showed an effect of 50% or more. The effect is printed as a negative number. This is one part of a sample in which strong results are shown more often than they occur.
Rule: t for hERG current change (%, negative = inhibition) at 10uM not less than -30%, f for anything less.

CC(=O)Nc1n[nH]c(-c2ccc(C)cc2)c1C    t

Quick check, hERG current change (%, negative = inhibition) at 10uM >= -30%? CCn1c(N2CCN(S(=O)(=O)c3ccc(F)cc3)CC2)nc2ccccc21
f

Same thing, different molecule: COc1ccc(Nc2nc3ccccc3n2C)cc1
t

Same thing, different molecule: O=C(Nc1ccc(F)cc1)N1CCN(c2nc3ccccc3s2)CC1
t

Same thing, different molecule: CCn1c(N2CCN(C(=S)Nc3ccc(OC)cc3)CC2)nc2ccccc21
f

====

target: human ether-à-go-go-related gene (hERG) potassium channel (human, UniProt Q12809); assay: primary screen, population patch clamp on CHO cells stably expressing hERG; higher = less effect of the substance;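 also: peak tail current of the secondary pulse compared with the same well before compound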
Among all 310,000 compounds or so, about 14,000 (4.5%) showed an effect of 50% or more. The effect is printed as a negative number. This is one part of a sample in which strong results are shown more often than they occur.
Value type: hERG current change (%, negative = inhibition) at 10uM (%)
Provide only the numeric value, understood in %.

O=C(Nc1ccc2oc(-c3ccccc3Cl)nc2c1)c1cncc(Br)c1    -8.01
CCCCCn1c(=NC(C)=O)c(C#N)cc2c(=O)n3ccccc3nc21    -43
Cc1cc(/C=N/n2cnnc2)c(C)n1-c1ccccc1    -4.02
COc1ccccc1N1C(=O)CC(N2CCN(c3ccc([N+](=O)[O-])cc3)CC2)C1=O (stereo not drawn)    -68.6
COC(=O)C1=C(c2ccc(F)cc2OCc2ccccc2)C[C@@H]2CC[C@H]1N2C(=O)NCCCc1ccccc1    4.96

If you can, please state the reported hERG current change (%, negative = inhibition) at 10uM value of CN(C)C(CNC(=O)c1cc(S(=O)(=O)N(C)c2ccccc2)ccc1Cl)c1ccccc1 (stereo not drawn) .
-39.6

Same thing, different compound: COc1ccccc1CNC(=O)c1cccc(S(=O)(=O)N(C)c2ccccc2)c1
-23.5

Same thing, different compound: Cc1oc2c(c1C(=O)N1CCOCC1)C(=O)c1ccccc1C2=O
5.25

Same thing, different compound: COc1cccc(N2CCN(C3CC(=O)N(c4ccc(Cl)c(Cl)c4)C3=O)CC2)c1 (stereo not drawn)
-0.0262
